# tested on: T1, cynoCSF1R ECD-Fc (cynomolgus)
# T1 construct: also called cynomolgus CSF1R ECD
# T1 sequence (chain, as listed by the source): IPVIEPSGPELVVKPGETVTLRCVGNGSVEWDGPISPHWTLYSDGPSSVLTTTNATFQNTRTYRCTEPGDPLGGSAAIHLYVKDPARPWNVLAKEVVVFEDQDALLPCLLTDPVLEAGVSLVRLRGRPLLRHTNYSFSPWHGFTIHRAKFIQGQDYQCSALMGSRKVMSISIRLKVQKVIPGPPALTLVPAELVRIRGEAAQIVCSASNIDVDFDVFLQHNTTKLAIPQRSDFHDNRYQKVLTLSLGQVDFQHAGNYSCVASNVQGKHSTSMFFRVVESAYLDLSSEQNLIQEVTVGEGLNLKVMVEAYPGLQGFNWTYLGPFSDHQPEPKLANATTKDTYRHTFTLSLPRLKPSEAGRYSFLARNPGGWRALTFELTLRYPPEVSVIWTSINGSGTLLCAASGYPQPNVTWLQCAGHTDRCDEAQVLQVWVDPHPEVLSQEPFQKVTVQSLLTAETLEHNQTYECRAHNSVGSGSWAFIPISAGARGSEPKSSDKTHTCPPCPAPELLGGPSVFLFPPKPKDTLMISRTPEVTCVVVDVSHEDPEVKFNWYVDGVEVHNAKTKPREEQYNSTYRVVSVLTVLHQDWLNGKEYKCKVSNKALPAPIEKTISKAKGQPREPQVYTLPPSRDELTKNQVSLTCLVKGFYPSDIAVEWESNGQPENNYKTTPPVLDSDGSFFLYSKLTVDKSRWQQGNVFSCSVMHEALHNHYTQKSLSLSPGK
# method notes: ELISA, plate coated with cynoCSF1R ECD-Fc
Provide the reported log10(EC50) of each item.
In our notation, the value equals log10 of EC50 in µg/mL.

Example cases with answers are listed next.
>  <binder>
h0302-L1H2 (antibody, human IgG4 S228P, kappa, V domains shown, also called Ab11; huAb 0302-L1H2) VH: QVQLVQSGAEVKKPGSSVKVSCKASGYTFSDFNIHWVRQAPGQGLEWIGYINPYTDVTVYNEKFKGRATLTSDKSTSTAYMELSSLRSEDTAVYYCASYFDGTFDYALDYWGQGTLVTVSS VL: EIVLTQSPATLSLSPGERATLSCRASESVDNYGLSFMNWYQQKPGQAPRLLIYTASNLESGIPARFSGSGSRTDFTLTISSLEPEDFAVYYCQQSKELPWTFGQGTKVEIKR

>  <experimental result>
-0.76

$$$$
>  <binder>
cAb 0311 (antibody, human IgG4 S228P, kappa, V domains shown) VH: EIQLQQSGPDLMKPGASVKMSCKASGYIFTDYNMHWVKQNQGKSLEWMGEINPNNGVVVYNQKFKGTTTLTVDKSSSTAYMDLHSLTSEDSAVYYCTRALYHSNFGWYFDSWGKGTTLTVSS VL: DIVLTQSPASLAVSLGQRATISCKASQSVDYDGDSHMNWYQQKPGQPPKLLIYTASNLESGIPARFSGSGSGADFTLTIHPVEEEDAATYYCQQGNEDPWTFGGGTRLEIKR

>  <experimental result>
-1.70

$$$$
>  <binder>
cAb 0301 (antibody, human IgG4 S228P, kappa, V domains shown) VH: EVQLQQSGPELVRPGASVKMSCKASGYTFTDNYMIWVKQSHGKSLEWIGDINPYNGGTTFNQKFKGKATLTVEKSSSTAYMQLNSLTSEDSAVYYCARESPYFSNLYVMDYWGQGTSVTVSS VL: NIVLTQSPASLAVSLGQRATISCKASQSVDYDGDNYMNWYQQKPGQPPKLLIYAASNLESGIPARFSGSGSGTDFTLNIHPVEEEDAATYYCHLSNEDLSTFGGGTKLEIKR

>  <experimental result>
-1.82

$$$$

I would be grateful if you could provide log10(EC50) for each of the following entries.
1. h0302-L1H1 (antibody, human IgG4 S228P, kappa, V domains shown, also called Ab8; huAb 0302-L1H1) VH: QVQLVQSGAEVKKPGSSVKVSCKASGYTFSDFNIHWVRQAPGQGLEWMGYINPYTDVTVYNEKFKGRVTITSDKSTSTAYMELSSLRSEDTAVYYCASYFDGTFDYALDYWGQGTLVTVSS VL: EIVLTQSPATLSLSPGERATLSCRASESVDNYGLSFMNWYQQKPGQAPRLLIYTASNLESGIPARFSGSGSRTDFTLTISSLEPEDFAVYYCQQSKELPWTFGQGTKVEIKR
2. h0302-L0H1 (antibody, human IgG4 S228P, kappa, V domains shown, also called Ab7; huAb 0302-L0H1) VH: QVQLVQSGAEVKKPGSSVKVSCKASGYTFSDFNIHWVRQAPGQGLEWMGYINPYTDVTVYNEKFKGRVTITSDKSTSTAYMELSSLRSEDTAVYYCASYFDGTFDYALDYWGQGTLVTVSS VL: EIVLTQSPATLSLSPGERATLSCRASESVDNYGLSFMNWYQQKPGQAPRLLIYTASNLESGIPARFSGSGSGTDFTLTISSLEPEDFAVYYCQQSKELPWTFGQGTKVEIKR

(A)
0.03
-0.33

Values compiled from patent US20220153851A1.
